B1: Hairpin Ribozyme (parent)
chain: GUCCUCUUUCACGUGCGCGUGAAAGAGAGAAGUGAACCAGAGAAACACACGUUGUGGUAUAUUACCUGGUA

Variants of: B1
Experiment: self-cleavage, relative activity (ratio to wild type); higher = more cleavage; co-transcriptional
self-cleavage values for the variants below.
Just the number, please.

Return reported self-cleavage; argument: U2G G21A
0.265

# iterate: C16A A30G
0.11

Now consider C4A G57U and answer again.
0.169
